Hello, the source for this data is patent US20250034125A1, in case you need it.

pIC50 values for the compounds below.
- experimental.target: SCD1 (Homo sapiens, UniProt O00767)
- Construct: host or cells: Saccharomyces cerevisiae ole1Δ strain (W303 pdr1Δ pdr3Δ background), plasmid pRS316, TDH3 promoter
- Sequence (O00767 whole entry): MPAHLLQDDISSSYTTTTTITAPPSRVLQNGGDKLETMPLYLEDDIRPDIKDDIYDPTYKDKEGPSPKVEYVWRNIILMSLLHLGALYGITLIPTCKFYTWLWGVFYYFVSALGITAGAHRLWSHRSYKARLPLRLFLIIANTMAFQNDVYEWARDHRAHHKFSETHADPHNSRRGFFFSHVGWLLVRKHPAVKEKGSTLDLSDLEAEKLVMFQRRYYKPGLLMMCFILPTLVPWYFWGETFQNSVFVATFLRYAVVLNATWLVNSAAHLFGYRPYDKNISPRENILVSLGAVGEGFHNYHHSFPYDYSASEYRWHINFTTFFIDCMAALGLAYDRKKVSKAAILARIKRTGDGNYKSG
- test.description: Growth inhibition of yeast (ole1Δ) expressing human SCD1 as the sole desaturase
- Type: cell-based
- condition.info: yeast strain with SCD1 plasmid, OD600 growth read at 40 h; read-out: SCD1 IC50
Reminder that pIC50 means the negative base-10 logarithm of the concentration expressed in mol/L.

INSERT INTO measurements (structure_as_smiles, value_kind, result) VALUES
  ('Cn1nc(-c2cnc(N3CCC(Cc4cc(F)cc(F)c4)CC3)o2)ccc1=O', 'pIC50', 4.59),
  ('Cn1nc(NC(=O)N2CCC(Oc3cc(F)c(F)c(C#N)c3)CC2)ccc1=O', 'pIC50', 4.99),
  ('Cn1nc(NC(=O)N2CCC(Oc3ccc(F)cc3Cl)CC2)ccc1=O', 'pIC50', 5.36),
  ('Cn1nc(NC(=O)N2CCC(Oc3ccc(F)c(F)c3)CC2)ccc1=O', 'pIC50', 5.70),
  ('Cn1nc(NC(=O)N2CCC(Cc3cc(F)cc(Cl)c3)CC2)ccc1=O', 'pIC50', 6.80);

The compound "Cn1cc(-c2nnc(N3CCC(Cc4cc(F)cc(F)c4)CC3)o2)ccc1=O" showed pIC50 equal to 5.01

----------
pIC50 values for the molecules below.
- experimental.target: SCD1 (Homo sapiens, UniProt O00767)
- Construct: host or cells: Saccharomyces cerevisiae ole1Δ strain (W303 pdr1Δ pdr3Δ background), plasmid pRS316, TDH3 promoter
- test.description: Growth inhibition of yeast (ole1Δ) expressing human SCD1 as the sole desaturase
- Assay type: cell-based
- condition.info: yeast strain with SCD1 plasmid, OD600 growth read at 40 h; read-out: SCD1 IC50
Reminder that pIC50 means the negative base-10 logarithm of the concentration expressed in mol/L.

# example entries with known answers
INSERT INTO measurements (molecule, experimental_target, result) VALUES
  ('Cn1nc(NC(=O)N2CCC(F)(Cc3ccc(F)c(F)c3)CC2)ccc1=O [Compound 60]', 'SCD1 (Homo sapiens, UniProt O00767)', 5.41),
  ('Cc1cc(NC(=O)N2CCC(Oc3ccc(F)c(F)c3)CC2)nn(C)c1=O [Compound 127]', 'SCD1 (Homo sapiens, UniProt O00767)', 6.70),
  ('Cn1nc(NC(=O)N2CCC(Cc3cc(Cl)cc(C#N)c3)CC2)ccc1=O [Compound 57]', 'SCD1 (Homo sapiens, UniProt O00767)', 5.04),
  ('Cn1nc(NC(=O)N2CCC(Oc3ccc(F)cc3C(F)(F)F)CC2)ccc1=O [Compound 85]', 'SCD1 (Homo sapiens, UniProt O00767)', 7.10),
  ('Cn1nc(NC(=O)N2CCC(Oc3ccc(C(F)(F)F)c(F)c3)CC2)ccc1=O [Compound 88]', 'SCD1 (Homo sapiens, UniProt O00767)', 7.15);

The molecule Cn1nc(NC(=O)N2CCC(Oc3ccccc3C(F)(F)F)CC2)ccc1=O [Compound 75] showed pIC50 equal to 6.66

The molecule Cn1nc(NC(=O)N2CCC(Cc3cc(F)cc(F)c3)C2)ccc1=O (stereo not drawn) [Compound 26] showed pIC50 equal to 5.38
